Tested on: Monochoria vaginalis, Presl.
experiment summary: Preemergence weed control under flooded paddy conditions, MOOVA (Monochoria)
Format: in vivo
reported conditions: 0.0620 kg/ha; preemergence weeds, flooded paddy; herbicidal effect rating 0-9, three to four weeks after treatment
assay metric: MOOVA
Output: the number by itself.

>>> measured_value("Cc1ccsc1C=C(C#N)c1nsc2ccc(-n3c(=O)cc(C(F)(F)F)n(C)c3=O)cc12 [Example 457]")
4.0
>>> measured_value("Cn1c(C(F)(F)F)cc(=O)n(-c2ccc3snc(COC(=O)Cc4ccc(Cl)cc4)c3c2)c1=O [Example 452]")
9.0
>>> measured_value("CCOCN(C(=O)c1nsc2ccc(-n3c(=O)cc(C(F)(F)F)n(C)c3=O)cc12)S(=O)(=O)Cc1ccccc1 [Example 440]")
9.0
>>> measured_value("CN(Cc1ccc(Cl)cc1)S(=O)(=O)NC(=O)c1nsc2ccc(-n3c(=O)cc(C(F)(F)F)n(C)c3=O)cc12 [Example 420]")
9.0
>>> measured_value("COc1cccc(CC(=O)OCc2nsc3ccc(-n4c(=O)cc(C(F)(F)F)n(C)c4=O)cc23)c1 [Example 454]")
7.0
>>> measured_value("COc1cc(C(Br)Br)ccc1-c1nsc2ccc(-n3c(=O)cc(C(F)(F)F)n(C)c3=O)cc12 [Example 447]")
9.0
>>> measured_value("COC(=O)COc1ccc(I)cc1-c1nsc2ccc(-n3c(=O)cc(C(F)(F)F)n(C)c3=O)cc12 [Example 459]")
5.0
>>> measured_value("COCCOC(=O)c1nsc2ccc(-n3c(=O)cc(C(F)(F)F)n(C)c3=O)cc12 [Example 411]")
9.0
>>> measured_value("COc1ccc(I)cc1-c1nsc2ccc(-n3c(=O)cc(C(F)(F)F)n(C)c3=O)cc12 [Example 448]")
9.0
>>> measured_value("CCC(C#N)c1nsc2ccc(-n3c(=O)cc(C(F)(F)F)n(C)c3=O)cc12 (centres unmarked) [Example 444]")
9.0

Consider the molecule shown here: COC(=O)COc1ccc(C)cc1-c1nsc2cc(Cl)c(-n3c(=O)cc(C(F)(F)F)n(C)c3=O)cc12 [Example 443] What is its recorded MOOVA?
6.0

Consider the molecule shown here: CONC(=O)c1nsc2ccc(-n3c(=O)cc(C(F)(F)F)n(C)c3=O)cc12 [Example 403] What is its recorded MOOVA?
6.0

Consider the molecule shown here: CC(Cl)c1nsc2ccc(-n3c(=O)cc(C(F)(F)F)n(C)c3=O)cc12 (centres unmarked) [Example 416] What is its recorded MOOVA?
7.0

Consider the molecule shown here: Cn1c(C(F)(F)F)cc(=O)n(-c2ccc3snc(C(=O)NS(=O)(=O)Cc4ccc(OC(F)(F)F)cc4)c3c2)c1=O [Example 406] What is its recorded MOOVA?
7.0

====

Tested on: Echinochloa oryzoides (Ard.) Fritsch.
experiment summary: Preemergence weed control under flooded paddy conditions, ECHORC (Watergrass (Calif.)); note: meaning of each grade not given here
Type: in vivo
reported conditions: Rate 0.0320 kg/ha; preemergence, flooded paddy; rated 3-4 weeks after treatment
assay metric: herbicidal effect rating, ECHORC
Output: the number by itself.

>>> measured_value("Cn1c(C(F)(F)F)cc(=O)n(-c2ccc3snc(-c4ccccc4OCC(N)=O)c3c2)c1=O")
3.6
>>> measured_value("Cc1ccc(OC(C)(C)C(=O)OCC(F)(F)F)c(-c2nsc3ccc(-n4c(=O)cc(C(F)(F)F)n(C)c4=O)cc23)c1")
5.6
>>> measured_value("Cc1ccc(OC(C)(C)C(=O)OCCCl)c(-c2nsc3ccc(-n4c(=O)cc(C(F)(F)F)n(C)c4=O)cc23)c1")
5.4
>>> measured_value("CNC(=O)COc1ccc(C)cc1-c1nsc2ccc(-n3c(=O)cc(C(F)(F)F)n(C)c3=O)cc12")
3.6
>>> measured_value("Cn1c(C(F)(F)F)cc(=O)n(-c2ccc3snc(/C=C/C(=O)c4ccccc4)c3c2)c1=O")
4.0
>>> measured_value("Cc1ccc(OCC(=O)OCCC2OCC(C)(C)CO2)c(-c2nsc3ccc(-n4c(=O)cc(C(F)(F)F)n(C)c4=O)cc23)c1")
7.5
>>> measured_value("Cc1ccc(OCC(=O)OCCCCCO[Si](C)(C)C(C)(C)C)c(-c2nsc3ccc(-n4c(=O)cc(C(F)(F)F)n(C)c4=O)cc23)c1")
3.5
>>> measured_value("C=CS(=O)(=O)NC(=O)COc1ccccc1-c1nsc2ccc(-n3c(=O)cc(C(F)(F)F)n(C)c3=O)cc12")
4.3

// next item, herbicidal effect rating, ECHORC requested
Consider the molecule shown here: Cc1ccc(OCC(=O)c2ccc(OC(F)F)cc2)c(-c2nsc3ccc(-n4c(=O)cc(C(F)(F)F)n(C)c4=O)cc23)c1 What is its recorded herbicidal effect rating, ECHORC?
2.1
